# target-under-test: BCL6 BTB domain (biotin-thrombin-BCL6 amino acids 1-129) (Homo sapiens (Human), UniProt P41182)
pKd: −log10 of the molar value.
Decision: pKd compared against 8; not below it gives true, below it gives false.

Examples with answers:
* C[C@H]1CN(C)CCN1c1cc(NC(=O)Cn2cc(-c3cc(Cl)c(O)c(C(N)=O)c3)c3c(=O)n4c(nc32)CCC4)c(Cl)c(F)n1 | true
* C[C@H]1CN(CC2CC2)CCN1c1cc(NC(=O)Cn2cc(-c3cc(C(N)=O)c(O)c(F)c3F)c3c(=O)n4c(nc32)CCCC4)c(Cl)c(F)n1 | false
* C[C@H]1CN(CCC(F)(F)F)CCN1c1cc(NC(=O)Cn2cc(-c3cc(C(N)=O)c(O)c(F)c3F)c3c(=O)n4c(nc32)CCC4)c(Cl)cn1 | false

Is reported pKd greater than or equal to 8 here: `CCN1CCN(c2cc(NC(=O)Cn3cc(-c4cc(C(N)=O)c(O)c(F)c4F)c4c(=O)n5c(nc43)CCCCC5)c(Cl)c(F)n2)[C@@H](C)C1`
false

Dear colleague, could you confirm whether `C[C@H]1CN(CC2CC2)CCN1c1cc(NC(=O)Cn2cc(-c3cc(C(N)=O)c(O)c(Cl)c3F)c3c(=O)n4c(nc32)CCC4)c(Cl)c(F)n1` has pKd at or above 8?
false

Say whether `COCCN1CCN(c2cc(NC(=O)Cn3cc(-c4cc(C(N)=O)c(O)c(F)c4F)c4c(=O)n5c(nc43)CCC5)c(Cl)c(F)n2)[C@@H](C)C1` shows pKd of 8 or more.
true

In plain terms: is recorded pKd at least 8 for `C[C@H]1COCCN1c1cc(NC(=O)Cn2cc(-c3cc(C(N)=O)c(O)c4c3OCO4)c3c(=O)n4c(nc32)CCC4)c(Cl)cn1` ?
true

# check: pKd of `CN1CCN(c2ccc(Cl)c(NC(=O)Cn3cc(-c4cc(C(N)=O)c(O)c(F)c4F)c4c(=O)n5c(nc43)CCC5)c2)CC1` is greater than or equal to 8
false

For this compound, is measured pKd 8 or higher? `C[C@H]1CN(CCC(F)(F)F)CCN1c1cc(NC(=O)Cn2cc(-c3cc(C(N)=O)c(O)c(F)c3F)c3c(=O)n4c(nc32)CCC4)c(Cl)c(F)n1`
false

Answer whether pKd of `C[C@H]1CN(C)C[C@H](C)N1c1cc(NC(=O)Cn2cc(-c3cc(C(N)=O)c(O)c(F)c3F)c3c(=O)n4c(nc32)CCC4)c(Cl)cn1` is greater than or equal to 8.
false

---

A short record of Kd observed with BCL6 BTB domain (biotin-thrombin-BCL6 amino acids 1-129) (Homo sapiens (Human)) follows.
Enter your answer as a number in nM; do not include the unit.

Solved entries (count: 2):
- C[C@H]1COCCN1c1cc(NC(=O)Cn2cc(-c3cc(C(N)=O)c(O)c(F)c3F)c3c(=O)n4c(nc32)CCC4)c(Cl)cn1 [I-3]: 25.2
- CCN1CCN(c2cc(NC(=O)Cn3cc(-c4cc(C(N)=O)c(O)c(F)c4F)c4c(=O)n5c(nc43)CCCC5)c(Cl)c(F)n2)[C@@H](C)C1 [I-43]: 42.8

// moving on: another record for Kd
Provide Kd, tested on BCL6 BTB domain (biotin-thrombin-BCL6 amino acids 1-129) (Homo sapiens (Human)), for C[C@H](C1CC1)N1CCN(c2cc(NC(=O)Cn3cc(-c4cc(C(N)=O)c(O)c(F)c4F)c4c(=O)n5c(nc43)CCC5)c(Cl)c(F)n2)[C@@H](C)C1 [I-39] .
34.9
